Cited source for all entries: ChEMBL document CHEMBL4699486

- Target: Neuropeptides B/W receptor type 1 (Homo sapiens)
- Sequence (P48145 whole entry): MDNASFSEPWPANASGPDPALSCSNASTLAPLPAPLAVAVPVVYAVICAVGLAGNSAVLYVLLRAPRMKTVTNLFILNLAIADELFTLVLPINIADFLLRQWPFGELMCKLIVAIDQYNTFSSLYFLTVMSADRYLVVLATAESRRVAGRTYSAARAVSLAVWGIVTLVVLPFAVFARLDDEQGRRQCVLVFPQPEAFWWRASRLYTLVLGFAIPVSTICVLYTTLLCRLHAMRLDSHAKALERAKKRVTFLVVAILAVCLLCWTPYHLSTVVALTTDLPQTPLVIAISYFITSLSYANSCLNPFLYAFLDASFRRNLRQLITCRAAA
- Method notes: Antagonist activity at human NPBWR1 assessed as inhibition of agonist-induced cAMP accumulation by cAMP assay
Consider the following compounds; for each one, report its pIC50.
One number for each entry, as −log10 of the molar value.

Completed entries (count: 3):
| Smiles text | Recorded endpoint | Numeric readout |
| --- | --- | --- |
| Cc1cc(Cl)ccc1-c1nc2cc([N+](=O)[O-])ccc2[nH]1 | pIC50 | 5.60 |
| O=[N+]([O-])c1ccc2nc(-c3ccc(Cl)cc3Cl)[nH]c2c1 | pIC50 | 5.54 |
| O=[N+]([O-])c1ccc2[nH]c(-c3ccccc3N3CCCC3)nc2c1 | pIC50 | 5.17 |

Batch request: pIC50 for each of the following compounds.
1. O=[N+]([O-])c1ccc2[nH]c(-c3cccc(Cl)c3)nc2c1
2. CC(C)(C)c1ccc(-c2nc3cc([N+](=O)[O-])ccc3[nH]2)cc1
3. Nc1ccc(-c2nc3cc([N+](=O)[O-])ccc3[nH]2)cc1
4. Cc1ccc(-c2nc3cc([N+](=O)[O-])ccc3[nH]2)c(C)c1
5. FC(F)(F)c1ccc2[nH]c(-c3ccccc3)nc2c1

Result:
1. 5.00
2. 5.50
3. 5.07
4. 5.81
5. 5.92

Batch request: pIC50 for each of the following compounds.
1. NCc1ccc(-c2ccc(-c3nc4cc(C(F)(F)F)ccc4[nH]3)cc2)cc1
2. O=[N+]([O-])c1ccc2[nH]c(-c3ccc(Cl)cc3Br)nc2c1
3. FC(F)(F)c1ccc2[nH]c(-c3ccc(-c4nnc[nH]4)cc3)nc2c1
4. COc1ccc(-c2nc3cc([N+](=O)[O-])ccc3[nH]2)cc1
5. Cc1cc(-c2nc3cc([N+](=O)[O-])ccc3[nH]2)ccc1Cl
6. Cc1ccc(-c2nc3cc([N+](=O)[O-])ccc3[nH]2)cc1
7. O=[N+]([O-])c1ccc2[nH]c(-c3ccccc3)nc2c1
8. CC(=O)c1ccc(-c2nc3cc([N+](=O)[O-])ccc3[nH]2)cc1

Result:
[6.14, 5.76, 5.51, 5.22, 5.64, 5.82, 5.00, 5.03]

Batch request: pIC50 for each of the following compounds.
1. CCc1ccc(-c2nc3cc([N+](=O)[O-])ccc3[nH]2)cc1
2. O=[N+]([O-])c1ccc2[nH]c(-c3cccc(N4CCCC4)c3)nc2c1
3. FC(F)(F)c1ccc2[nH]c(-c3ccc(-c4ccoc4)cc3)nc2c1
4. O=[N+]([O-])c1ccc2[nH]c(-c3ccc(N4CCCC4)cc3)nc2c1
5. Cc1ccc(-c2nc3cc([N+](=O)[O-])ccc3[nH]2)cc1C

Result:
[5.99, 5.22, 5.92, 5.74, 5.86]

Batch request: pIC50 for each of the following compounds.
1. Cn1cc(-c2ccc(-c3nc4cc(C(F)(F)F)ccc4[nH]3)cc2)cn1
2. FC(F)(F)c1ccc2[nH]c(-c3ccc(-c4c[nH]nc4C(F)(F)F)cc3)nc2c1

Result:
1: 5.83; 2: 5.92
